Cited source for all entries: patent US8633245B2

system name: recombinant human PAI-1 (Homo sapiens, UniProt P05121)
Construct: purchased Molecular Innovations, Inc
Sequence (P05121 24-402): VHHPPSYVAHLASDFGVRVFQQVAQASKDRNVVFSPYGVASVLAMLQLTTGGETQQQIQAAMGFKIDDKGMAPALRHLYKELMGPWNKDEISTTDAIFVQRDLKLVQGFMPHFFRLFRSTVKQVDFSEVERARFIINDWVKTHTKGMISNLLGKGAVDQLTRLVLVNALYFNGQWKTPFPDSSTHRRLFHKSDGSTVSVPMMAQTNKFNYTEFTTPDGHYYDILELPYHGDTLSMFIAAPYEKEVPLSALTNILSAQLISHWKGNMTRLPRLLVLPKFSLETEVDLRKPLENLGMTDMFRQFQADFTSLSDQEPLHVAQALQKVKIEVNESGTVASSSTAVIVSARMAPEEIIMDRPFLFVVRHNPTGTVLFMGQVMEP
assay remarks: Test Example 2: human PAI-1 inhibitory activity (tPA fluorogenic substrate, pH 7.4 HEPES buffer)
Type: biochemical
condition summary: human PAI-1; compound concentration 0.3 μM
// reported Inhibition Rate of PAI-1 Activity (%) per item

- molecule: "Cc1ccc(-c2ccc(OCC(=O)O)c(Oc3ccc(C(C)(C)C)cc3)c2)cc1"
  Inhibition Rate of PAI-1 Activity (%): 0
- molecule: "O=C(O)C(=O)N(CCCCc1ccccc1)c1ccc(N2CCSCC2)c(-c2ccc(OC(F)(F)F)cc2)c1"
  Inhibition Rate of PAI-1 Activity (%): 14
- molecule: "CC(C)(C)c1ccc(Oc2cc(-c3cc(Cl)ccc3Cl)ccc2OCC(=O)O)cc1"
  Inhibition Rate of PAI-1 Activity (%): 20
- molecule: "Cc1cc(C)cc(-c2ccc(CCC(=O)O)c(Oc3ccc(C(C)(C)C)cc3)c2)c1"
  Inhibition Rate of PAI-1 Activity (%): 4
- molecule: "CCCCCOc1cc(-c2ccc(OC(F)(F)F)cc2)cc(OCCCCC)c1OCC(=O)O"
  Inhibition Rate of PAI-1 Activity (%): 4
- molecule: "CC(C)(C)c1ccc(Oc2cc(-c3ccc(C(C)(C)C)cc3)ccc2OCC(=O)O)cc1"
  Inhibition Rate of PAI-1 Activity (%): 13
- molecule: "O=C(O)CCc1ccc(-c2ccc(OC(F)(F)F)cc2)cc1OCCCOCc1ccccc1"
  Inhibition Rate of PAI-1 Activity (%): 10
- molecule: "CC(C)(C)c1ccc(Oc2cc(-c3cccc(OC(F)(F)F)c3)ccc2CCC(=O)O)cc1"
  Inhibition Rate of PAI-1 Activity (%): 26
- molecule: "CCCCC(CC(=O)O)c1cc(-c2ccc(OC(F)(F)F)cc2)ccc1Oc1ccc(C(C)(C)C)cc1 (stereo not shown)"
  Inhibition Rate of PAI-1 Activity (%): 24
- molecule: "O=C(O)CCc1ccc(-c2ccc(OC(F)(F)F)cc2)cc1Oc1ccc2ccccc2c1"
  Inhibition Rate of PAI-1 Activity (%): 3
- molecule: "CCCCOc1ccc(Oc2cc(-c3ccc(OC(F)(F)F)cc3)ccc2OCC(=O)O)cc1"
  Inhibition Rate of PAI-1 Activity (%): 15
- molecule: "CC(C)(C)c1ccc(Oc2cc(Nc3ccc(OC(F)(F)F)cc3)ccc2/C=C/C(=O)O)cc1"
  Inhibition Rate of PAI-1 Activity (%): 38
- molecule: "COc1ccc(-c2ccc(OCC(=O)O)c(Oc3ccc(C(C)(C)C)cc3)c2)cc1"
  Inhibition Rate of PAI-1 Activity (%): 1
- molecule: "CCCCN(CC(=O)O)c1ccc(-c2ccc(OC(F)(F)F)cc2)cc1Oc1ccc(C(C)(C)C)cc1"
  Inhibition Rate of PAI-1 Activity (%): 83
- molecule: "O=C(O)CCc1ccc(-c2ccc(OC(F)(F)F)cc2)cc1Oc1ccc(OC(F)(F)F)cc1"
  Inhibition Rate of PAI-1 Activity (%): 14
- molecule: "CC(C)(C)c1ccc(Sc2cc(-c3ccc(OC(F)(F)F)cc3)ccc2C(=O)O)cc1"
  Inhibition Rate of PAI-1 Activity (%): 17
- molecule: "CC(Oc1cc(-c2ccc(OC(F)(F)F)cc2)ccc1/C=C/C(=O)O)c1ccccc1 (stereo not shown)"
  Inhibition Rate of PAI-1 Activity (%): 14
- molecule: "CC(C)(C)C1CCC(CN(C(=O)C(=O)O)c2ccc(-c3ccc(OC(F)(F)F)cc3)cc2)CC1 (stereo not shown) [Compound 679]"
  Inhibition Rate of PAI-1 Activity (%): 9
- molecule: "CC(C)(C)c1ccc(Oc2cc(-c3ccc(Cl)cc3)ccc2OCC(=O)O)cc1"
  Inhibition Rate of PAI-1 Activity (%): 18
- molecule: "CC(C)(C)c1cccc(Oc2cc(-c3ccc(OC(F)(F)F)cc3)ccc2OCC(=O)O)c1"
  Inhibition Rate of PAI-1 Activity (%): 19
- molecule: "CCCCCOc1cc(-c2ccc(OC(F)(F)F)cc2)ccc1CN(CC(=O)O)c1ccc(C(C)(C)C)cc1"
  Inhibition Rate of PAI-1 Activity (%): 64
- molecule: "CCC(CC)Oc1ccc(-c2ccc(/C=C/C(=O)O)c(Oc3ccc(C(C)(C)C)cc3)c2)cc1"
  Inhibition Rate of PAI-1 Activity (%): 82
- molecule: "CC(C)(C)c1ccc(-c2ccc(CCC(=O)O)c(Oc3ccc(OC(F)(F)F)cc3)c2)cc1"
  Inhibition Rate of PAI-1 Activity (%): 22
- molecule: "CC(C)c1ccc(-c2ccc(CCC(=O)O)c(Oc3ccc(C(C)(C)C)cc3)c2)cc1"
  Inhibition Rate of PAI-1 Activity (%): 19
- molecule: "Cc1cc(C)cc(Oc2cc(-c3ccc(C(C)(C)C)cc3)ccc2/C=C/C(=O)O)c1"
  Inhibition Rate of PAI-1 Activity (%): 24
- molecule: "CC(C)(C)c1ccc(Oc2cc(-c3cc(Cl)ccc3Cl)ccc2CCC(=O)O)cc1"
  Inhibition Rate of PAI-1 Activity (%): 7
- molecule: "CC(C)(C)c1ccc(-c2ccc(OCC(=O)O)c(Oc3cccc(C(C)(C)C)c3)c2)cc1"
  Inhibition Rate of PAI-1 Activity (%): 17
- molecule: "O=C(O)C(=O)N(CCCCc1ccccc1)c1ccc(N2CCCCCC2)c(-c2ccc(OC(F)(F)F)cc2)c1"
  Inhibition Rate of PAI-1 Activity (%): 55
